growth listing for selected compounds.
Tested on: A549/ATCC NSCLC
protocol summary: NCI-60 one-dose screen, 48 h (100 = growth as untreated, 0 = no growth, -100 = all killed)
conditions: 10 µM unless noted
Method: Growth inhibition of the A549/ATCC human Non-Small Cell Lung tumor cell line is measured as a screen for anti-cancer activity. Cells are grown in 96 well plates and exposed to the test compound for 48 hours. Compounds are tested at a single concentration, which is 10^-5 M for most compounds. The reported endpoint is percent growth (GI% or GIPRCNT), where numbers from 0 - 100% represent growth inhibition, and numbers from -100% - 0 represent cell death. […]
About 83,000 compounds went through this panel and 20% of them were active in at least one assay; those are over-represented in the sample as a whole.
Dear colleague, please return just the value in %, with no unit written.

Kindly note the recorded growth for CSc1ccc(SC2c3ccc(C)cc3Oc3nc(N)c(C#N)c(N)c32)cc1 (centres undefined) , which is 0.603
